Origin of values: patent US20240415918A1

- Tested On: CCK-B receptors (CHO-CCK) (Homo sapiens)
- Construct: expressed in transfected cells; host or cells: CHO (CHO-CCK model cells)
- Assay Info: Calcium flux (Fluo-8) antagonist test on CHO-CCK model cells in presence of CCK8
- Assay type: cell-based
- Condition Set: compound together with 10 nM CCK8
Where a SMILES comes first, the peptide text is derived from it. [ ]: non-standard residue; d: D form. Phe(3-Br) = N[C@@H](Cc1cccc(Br)c1)C(=O)O

Compound | Tested On | EC50, µM
CSCC[C@H](NC(=O)[C@H](N)Cc1c[nH]c2ccccc12)C(=O)N[C@@H](CC(=O)O)C(=O)N[C@@H](Cc1ccc(Br)cc1)C(N)=O | CCK-B receptors (CHO-CCK) (Homo sapiens) | 2.25
CS(=O)(=O)CC[C@H](NC(=O)[C@H](N)Cc1c[nH]c2ccccc12)C(=O)N[C@@H](CC(=O)O)C(=O)N[C@@H](Cc1cccc(Br)c1)C(N)=O | CCK-B receptors (CHO-CCK) (Homo sapiens) | 7.5
C[S+]([O-])CC[C@H](NC(=O)[C@H](N)Cc1c[nH]c2ccccc12)C(=O)N[C@@H](CC(=O)O)C(=O)N[C@@H](Cc1ccc(F)cc1)C(N)=O (stereo partly shown) | CCK-B receptors (CHO-CCK) (Homo sapiens) | 8.88
CSCC[C@H](NC(=O)[C@H](N)Cc1c[nH]c2ccccc12)C(=O)N[C@@H](CC(=O)O)C(=O)N[C@@H](Cc1cccc(Br)c1)C(N)=O | CCK-B receptors (CHO-CCK) (Homo sapiens) | 0.106
CSCC[C@H](NC(=O)[C@@H](CC(C)C)NC(C)=O)C(=O)N[C@@H](CC(=O)O)C(=O)N[C@@H](Cc1cccc(Br)c1)C(N)=O [HT-183, Ac-D-Leu-Met-Asp-Phe(3-Br)-NH2] (Ac-[dL]MD[Phe(3-Br)]-NH2) | CCK-B receptors (CHO-CCK) (Homo sapiens) | 9.41
CS(=O)(=O)CC[C@H](NC(=O)[C@H](N)Cc1c[nH]c2ccccc12)C(=O)N[C@@H](CC(=O)O)C(=O)N[C@@H](Cc1cc(F)c(F)c(F)c1)C(N)=O | CCK-B receptors (CHO-CCK) (Homo sapiens) | 8.42
CSCC[C@H](NC(=O)[C@H](N)Cc1c[nH]c2ccccc12)C(=O)N[C@@H](CC(=O)O)C(=O)N[C@@H](Cc1cccc(Cl)c1)C(N)=O | CCK-B receptors (CHO-CCK) (Homo sapiens) | 0.635

###

- Tested On: CCK-B receptors (CHO-CCK) (Homo sapiens)
- Construct: expressed in transfected cells; host or cells: CHO (CHO-CCK model cells)
- Assay Info: Calcium flux (Fluo-8) agonist test on CHO-CCK model cells
- Assay type: cell-based
- Condition Set: compound at 50 nM, CHO-CCK cells
- Description: • To detect changes in intracellular calcium ion concentration after the compound acts on model cells containing CCK-B receptors (CHO-CCK). • 1. The compound was formulated to a 10 mM mother liquor with DMSO, and then diluted into a series of 9 concentrations with a 3-fold gradient to form a 1000× stock solution. […] • 1. […] In the process of incubating cells, the compounds to be detected were prepared with HHBS. • 5. […]
Where a SMILES comes first, the peptide text is derived from it. [ ]: non-standard residue; d: D form. NMeW = CN[C@@H](Cc1c[nH]c2ccccc12)C(=O)O; Phe(3-Br) = N[C@@H](Cc1cccc(Br)c1)C(=O)O; Aad = N[C@@H](CCCC(=O)O)C(=O)O; Nle = CCCC[C@H](N)C(=O)O
Listing of recorded % Act-Ave @ 50 nM by entry.
Reported Endpoint: % Act-Ave @ 50 nM

Compound | Measurement
CCCC[C@H](NC(=O)[C@H](Cc1c[nH]c2ccccc12)N(C)C(C)=O)C(=O)N[C@@H](CCCC(=O)O)C(=O)N[C@@H](Cc1cccc(Br)c1)C(N)=O [HT-271, Ac-Trp-Nle-Aa-Phe(3-Br)-NH2] (Ac-[NMeW][Nle][Aad][Phe(3-Br)]-NH2) | 104.56%
CCCC[C@H](NC(=O)[C@H](Cc1c[nH]c2ccccc12)N(C)C(C)=O)C(=O)N[C@@H](CC(=O)O)C(=O)N[C@@H](Cc1cccc(Br)c1)C(N)=O [HT-269, Ac-(N-Me-Trp)-Nle-Asp-Phe(3-Br)-NH2] (Ac-[NMeW][Nle]D[Phe(3-Br)]-NH2) | 33.52%
CCCC[C@H](NC(=O)[C@H](Cc1c[nH]c2ccccc12)N(C)C(C)=O)C(=O)N[C@@H](CCCC(=O)O)C(=O)N[C@@H](Cc1cccc(Br)c1)C(N)=O [HT-272, Ac-(N-Me-Trp)-Nle-Aa-Phe(3-Br)-NH2] (Ac-[NMeW][Nle][Aad][Phe(3-Br)]-NH2) | 86.09%

###

- Tested On: CCK-B receptors (CHO-CCK) (Homo sapiens)
- Construct: expressed in transfected cells; host or cells: CHO (CHO-CCK model cells)
- Sequence (P32239 1-447): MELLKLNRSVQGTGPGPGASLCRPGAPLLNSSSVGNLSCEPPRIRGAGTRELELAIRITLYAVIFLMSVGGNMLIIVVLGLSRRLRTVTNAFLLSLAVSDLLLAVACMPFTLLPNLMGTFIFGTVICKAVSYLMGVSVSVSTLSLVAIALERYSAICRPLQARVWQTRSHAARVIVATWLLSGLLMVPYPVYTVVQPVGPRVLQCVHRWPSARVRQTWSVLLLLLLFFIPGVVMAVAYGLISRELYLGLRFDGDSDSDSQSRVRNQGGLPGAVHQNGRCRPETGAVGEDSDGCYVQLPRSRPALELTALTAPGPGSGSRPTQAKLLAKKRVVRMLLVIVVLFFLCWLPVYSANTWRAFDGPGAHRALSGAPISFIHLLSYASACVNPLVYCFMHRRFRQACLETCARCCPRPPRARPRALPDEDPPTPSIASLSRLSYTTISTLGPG
- Assay Info: Calcium flux (Fluo-8) agonist test on CHO-CCK model cells
- Format: cell-based
- Condition Set: compound at 50 nM, CHO-CCK cells
Where a SMILES comes first, the peptide text is derived from it. [ ]: non-standard residue; d: D form. Phe(3-Br) = N[C@@H](Cc1cccc(Br)c1)C(=O)O; dNMeW = CN[C@H](Cc1c[nH]c2ccccc12)C(=O)O; Aad = N[C@@H](CCCC(=O)O)C(=O)O; Nle = CCCC[C@H](N)C(=O)O
Let's look at some compounds and their measured % Act-Ave @ 50 nM.
Reported Endpoint: % Act-Ave @ 50 nM (%)

Compound | Reported Endpoint | Units | Measurement
CCCC[C@H](NC(=O)[C@@H](Cc1c[nH]c2ccccc12)N(C)C(C)=O)C(=O)N[C@@H](CCCC(=O)O)C(=O)N[C@@H](Cc1cccc(Br)c1)C(N)=O [HT-270, Ac-D-Trp-Nle-Aa-Phe(3-Br)-NH2] (Ac-[dNMeW][Nle][Aad][Phe(3-Br)]-NH2) | % Act-Ave @ 50 nM | % | 80.85
CSCC[C@H](NC(C)=O)C(=O)N[C@@H](CC(=O)O)C(=O)N[C@@H](Cc1cccc(Br)c1)C(N)=O [HT-282, Ac-Met-Asp-Phe(3-Br)-NH2] (Ac-Met-Asp-[Phe(3-Br)]-NH2) | % Act-Ave @ 50 nM | % | 0.45

###

- Tested On: CCK-B receptors (CHO-CCK) (Homo sapiens)
- Construct: expressed in transfected cells; host or cells: CHO (CHO-CCK model cells)
- Sequence (P32239 1-447): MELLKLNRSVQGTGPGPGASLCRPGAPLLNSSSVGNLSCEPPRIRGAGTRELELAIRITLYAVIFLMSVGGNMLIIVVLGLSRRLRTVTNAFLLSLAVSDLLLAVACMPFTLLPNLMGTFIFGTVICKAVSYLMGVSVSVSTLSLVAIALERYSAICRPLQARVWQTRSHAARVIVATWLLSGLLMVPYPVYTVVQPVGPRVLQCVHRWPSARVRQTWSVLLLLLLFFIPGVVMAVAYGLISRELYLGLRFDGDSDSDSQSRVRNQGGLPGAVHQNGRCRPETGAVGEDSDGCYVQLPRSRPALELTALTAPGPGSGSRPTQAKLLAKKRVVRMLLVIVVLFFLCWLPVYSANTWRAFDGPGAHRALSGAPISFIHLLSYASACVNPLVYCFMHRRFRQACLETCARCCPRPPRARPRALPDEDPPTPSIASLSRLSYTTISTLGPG
- Assay Info: Calcium flux (Fluo-8) agonist test on CHO-CCK model cells
- Type: cell-based
- Condition Set: compound at 10 μM; percentage of signal of 20 nM CCK8 alone
Here the recorded Agonistic Activity (%) at 10 μM is given for each entry.

Compound | Units | Agonistic Activity (%) at 10 μM
COC(=O)C[C@H](NC(=O)[C@H](CCS(C)(=O)=O)NC(=O)[C@H](N)Cc1c[nH]c2ccccc12)C(=O)N[C@@H](Cc1cccc(C)c1)C(N)=O | % | 0.86
COC(=O)C[C@H](NC(=O)[C@H](CC[S+](C)[O-])NC(=O)[C@H](N)Cc1c[nH]c2ccccc12)C(=O)N[C@@H](Cc1cc(F)c(F)c(F)c1)C(N)=O (some centres unmarked) | % | −4.16
COC(=O)C[C@H](NC(=O)[C@H](CC[S+](C)[O-])NC(=O)[C@H](N)Cc1c[nH]c2ccccc12)C(=O)N[C@@H](Cc1ccc(C)cc1)C(N)=O (some centres unmarked) | % | 9.82
CSCC[C@H](NC(=O)[C@H](N)Cc1c[nH]c2ccccc12)C(=O)N[C@@H](CC(=O)O)C(=O)N[C@@H](Cc1cccc(F)c1)C(N)=O | % | 79.08
CSCC[C@H](NC(=O)[C@H](N)Cc1c[nH]c2ccccc12)C(=O)N[C@@H](CC(=O)O)C(=O)N[C@@H](Cc1cccc(I)c1)C(N)=O | % | 49.93
